This section presents compounds with their documented DC50 values.
Molecular target: BTK (Homo sapiens, UniProt Q06187)
Sequence (Q06187 whole entry): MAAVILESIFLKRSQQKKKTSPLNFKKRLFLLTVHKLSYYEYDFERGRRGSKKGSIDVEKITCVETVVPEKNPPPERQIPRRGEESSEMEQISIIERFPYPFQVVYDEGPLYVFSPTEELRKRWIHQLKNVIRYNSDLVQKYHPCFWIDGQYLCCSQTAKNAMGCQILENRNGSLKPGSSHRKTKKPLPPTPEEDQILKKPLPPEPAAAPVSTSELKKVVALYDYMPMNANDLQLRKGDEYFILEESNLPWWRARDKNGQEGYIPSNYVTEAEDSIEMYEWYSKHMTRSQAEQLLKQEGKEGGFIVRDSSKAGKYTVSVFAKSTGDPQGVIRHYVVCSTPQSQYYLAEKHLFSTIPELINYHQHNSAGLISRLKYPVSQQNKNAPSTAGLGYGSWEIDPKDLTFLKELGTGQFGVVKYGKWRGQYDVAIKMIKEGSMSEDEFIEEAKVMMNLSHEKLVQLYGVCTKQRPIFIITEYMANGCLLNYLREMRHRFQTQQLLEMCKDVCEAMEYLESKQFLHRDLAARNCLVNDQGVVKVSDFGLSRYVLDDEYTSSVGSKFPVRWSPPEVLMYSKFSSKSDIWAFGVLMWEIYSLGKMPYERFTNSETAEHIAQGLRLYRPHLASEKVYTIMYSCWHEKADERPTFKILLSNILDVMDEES
Experiment: Degradation of BTK protein in Namalwa cells (Western blot; DC50, Dmax)
Details: BTK degradation; cell line not given
PROPERTY LABEL: DC50

{"COMPOUND": "NC(=O)c1c(-c2ccc(Oc3ccccc3)cc2)nn2c1NCCC2C1CCN(C2CCN(CCN3CCC(c4ccc5c(c4)C(=O)N(C4CCC(=O)NC4=O)C5=O)CC3)CC2)CC1 (centres unmarked)", "PROPERTY LABEL": "DC50", "VALUE REPORTED": "> 50 nM"}
{"COMPOUND": "NC(=O)c1c(-c2ccc(Oc3ccccc3)cc2)nn2c1NCC[C@H]2C1CCN(CC2CCN(CCC3CCN(c4ccc5c(c4)C(=O)N(C4CCC(=O)NC4=O)C5=O)CC3)CC2)CC1 (some centres unmarked)", "PROPERTY LABEL": "DC50", "VALUE REPORTED": "10 to 50 nM"}
{"COMPOUND": "NC(=O)c1c(-c2ccc(Oc3ccccc3)cc2)nn2c1NCCC2C1CCN(C2CCN(C(=O)N3CCC(CN4CCN(c5ccc6c(c5)CN(C5CCC(=O)NC5=O)C6=O)CC4)CC3)CC2)CC1 (centres unmarked)", "PROPERTY LABEL": "DC50", "VALUE REPORTED": "< 10 nM"}
{"COMPOUND": "Nc1ncnc2c1c(-c1ccc(Oc3ccccc3)cc1)nn2C1CCN(CC2CCN(CCN3CCC(c4ccc5c(c4)C(=O)N(C4CCC(=O)NC4=O)C5=O)CC3)CC2)CC1 (centres unmarked)", "PROPERTY LABEL": "DC50", "VALUE REPORTED": "10 to 50 nM"}
{"COMPOUND": "Nc1ncnc2c1c(-c1ccc(Oc3ccccc3)cc1)nn2C1CCN(C2CCN(C(=O)N3CCN(CCN4CCN(c5ccc6c(c5)CN(C5CCC(=O)NC5=O)C6=O)CC4)CC3)CC2)CC1 (centres unmarked)", "PROPERTY LABEL": "DC50", "VALUE REPORTED": "10 to 50 nM"}
